Every entry's value here was drawn from patent US20100204167A1.

system: Spodoptera frugiperda larvae; experiment: Spodoptera frugiperda larvae test (spray); type: in vivo; settings: 100 g/ha, single active compound
Below, each entry is listed alongside its reported Kill in % after 2d.
Just the number please, in %, no unit attached.

Please review the following examples before continuing.
compound: CCOC(=O)OC1=C(c2cc(C)ccc2C)C(=O)NC12CCC(OC)CC2 (stereo not shown) [compound (I-2-a)]
system.tested: Spodoptera frugiperda larvae
Kill in % after 2d / %: 83
//
compound: CCOC(=O)OC1=C(c2cc(C)ccc2C)C(=O)N[C@]12CC[C@@H](OC)CC2 [compound (I-2)]
system.tested: Spodoptera frugiperda larvae
Kill in % after 2d / %: 83
//
compound: Cc1nn(C)c(Oc2ccccc2)c1C=NOCc1ccc(C(=O)OC(C)(C)C)cc1 [fenpyroximate]
system.tested: Spodoptera frugiperda larvae
Kill in % after 2d / %: 50

(Q) Look at this compound and give its reported Kill in % after 2d. CC(C)c1cc(Oc2ccccc2)cc(C(C)C)c1NC(=S)NC(C)(C)C [diafenthiuron]
(A) 50
